Attribution: patent US20110319409A1

# Experimental system: human PDE10A2 (Homo sapiens, UniProt Q9Y233)
# Construct: cytoplasmic fraction of the lysate used as enzyme
# Sequence (Q9Y233 267-1055): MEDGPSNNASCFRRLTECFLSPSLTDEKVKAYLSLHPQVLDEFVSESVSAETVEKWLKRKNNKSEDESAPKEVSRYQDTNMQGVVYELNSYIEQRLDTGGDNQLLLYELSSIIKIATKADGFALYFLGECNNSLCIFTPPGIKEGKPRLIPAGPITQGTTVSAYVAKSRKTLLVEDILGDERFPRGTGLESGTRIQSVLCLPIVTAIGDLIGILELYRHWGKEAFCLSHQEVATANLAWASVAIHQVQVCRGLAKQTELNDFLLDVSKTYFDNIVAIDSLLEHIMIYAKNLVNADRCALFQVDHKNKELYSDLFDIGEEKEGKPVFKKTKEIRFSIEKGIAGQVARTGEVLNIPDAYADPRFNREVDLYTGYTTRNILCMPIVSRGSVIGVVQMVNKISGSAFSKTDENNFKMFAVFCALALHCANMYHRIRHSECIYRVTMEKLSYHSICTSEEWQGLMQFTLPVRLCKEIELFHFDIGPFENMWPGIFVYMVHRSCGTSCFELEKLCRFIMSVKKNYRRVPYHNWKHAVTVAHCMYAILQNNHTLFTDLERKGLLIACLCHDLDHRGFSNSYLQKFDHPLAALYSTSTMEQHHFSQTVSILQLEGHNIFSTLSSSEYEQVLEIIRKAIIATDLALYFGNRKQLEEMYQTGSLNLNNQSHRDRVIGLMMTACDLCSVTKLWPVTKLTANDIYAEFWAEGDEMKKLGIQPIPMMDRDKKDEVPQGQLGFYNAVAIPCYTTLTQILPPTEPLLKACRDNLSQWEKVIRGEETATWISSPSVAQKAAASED
# Protocol summary: PDE10 fluorescence polarization (IMAP FP) assay
# Conditions used: human PDE10 enzyme, FAM-labeled cAMP substrate 50 nM
The entries below are paired with their reported Ki.
Value expressed in nM; do not type the unit.

Below are worked cases with known answers.
# Test smiles, Quantity kind, Measured
data = [
    ("COc1ncccc1-c1cncc(-c2nc(NCc3cncnc3)c3ccncc3n2)c1", "Ki", 0.84),
    ("CC(C)OC(=O)c1cccc(-c2nc(NCc3ccncc3)c3ccncc3n2)c1", "Ki", 1.4),
]

### Prompt Fill blank: measured Ki of the molecule `c1cc(-c2nc(OCc3ccncc3)c3ccncc3n2)cc(-c2ncco2)c1` is ____.
### Response 2.7

### Prompt Fill blank: measured Ki of the molecule `COc1ncccc1-c1cccc(-c2nc(NCc3ccncc3)c3ccncc3n2)c1` is ____.
### Response 0.4

### Prompt Fill blank: measured Ki of the molecule `Cc1ncccc1-c1cccc(-c2nc(NCc3ccncc3)c3ccncc3n2)c1` is ____.
### Response 1.4

### Prompt Fill blank: measured Ki of the molecule `O=S(=O)(c1cccc2c1CN(c1nc(NCc3ccncc3)c3ccncc3n1)CC2)N1CCOCC1` is ____.
### Response 0.23

### Prompt Fill blank: measured Ki of the molecule `c1ccc2c(c1)CCN(c1nc(NCc3ccncc3)c3ccncc3n1)C2` is ____.
### Response 5.6

### Prompt Fill blank: measured Ki of the molecule `COc1ncccc1-c1cccc(-c2nc(NCc3cncnc3)c3ccncc3n2)c1` is ____.
### Response 0.41

### Prompt Fill blank: measured Ki of the molecule `COc1ncccc1-c1cccc(-c2nc(NCCO)c3ccncc3n2)c1` is ____.
### Response 2.7

### Prompt Fill blank: measured Ki of the molecule `C(=C\c1nc(NCc2cncnc2)c2ccncc2n1)/c1ccccc1` is ____.
### Response 131

### Prompt Fill blank: measured Ki of the molecule `c1cc(-c2nc(NCCN3CCOCC3)c3ccncc3n2)cc(-c2cncc3ccccc23)c1` is ____.
### Response 0.55
